system: HeLa cells; assay: Measurement of the cell cycle inhibition in HeLa cells; type: cell-based; settings: HeLa B cells, 20 h incubation with compound; FACS ratio G0/G1 to G2/M vs DMSO; concentration at which 50% of cells are in cell cycle arrest
The threshold is 30 nM. Values of IC50 beneath it are tagged met; values meeting or exceeding it are tagged not met.

CC(C)C(C)Nc1nc(-c2ccccn2)nc(Cl)c1-c1c(F)cccc1F (stereo not drawn) [Example 84] | met
Cc1cccc(-c2nc(Cl)c(-c3c(F)cc(F)cc3F)c(NC(C)C)n2)n1 | not met
CON=C(N)c1nc(Cl)c(-c2cc(F)ccc2Cl)c(N[C@@H](C)C(C)C)n1 | not met

Query: Please indicate whether the reported IC50 of CCOC(=O)c1cc(C)nn1-c1nc(Cl)c(-c2c(F)cc(F)cc2F)c(N[C@H](C)C(C)C)n1 is strictly below 30 nM.
Reply: not met

Query: Please indicate whether the reported IC50 of CCCNc1nc(-n2nc(C)cc2C(=O)OCC)nc(Cl)c1-c1ccc(C)cc1F is strictly below 30 nM.
Reply: not met

Query: Please indicate whether the reported IC50 of CC1CCN(c2nc(-n3cncn3)nc(Cl)c2-c2c(F)cc(F)cc2F)CC1 is strictly below 30 nM.
Reply: met

Query: Please indicate whether the reported IC50 of COc1cc(F)c(-c2c(Cl)nc(-n3cncn3)nc2N2CCC(C)CC2)c(F)c1 is strictly below 30 nM.
Reply: met

Query: Please indicate whether the reported IC50 of CC1CCCCN1c1nc(-n2ccnn2)nc(Cl)c1-c1c(F)cccc1F (stereo not drawn) is strictly below 30 nM.
Reply: not met

Query: Please indicate whether the reported IC50 of C[C@H](Nc1nc(-n2cc(I)cn2)nc(Cl)c1-c1c(F)cc(F)cc1F)C(F)(F)F is strictly below 30 nM.
Reply: met

Query: Please indicate whether the reported IC50 of CCC(C)Nc1nc(-n2ccnn2)nc(Cl)c1-c1c(F)cccc1F (stereo not drawn) is strictly below 30 nM.
Reply: not met

Query: Please indicate whether the reported IC50 of CCC(C)Nc1nc(-n2ccnn2)nc(Cl)c1-c1c(F)cccc1Cl (stereo not drawn) is strictly below 30 nM.
Reply: not met

Query: Please indicate whether the reported IC50 of CC1CCCCN1c1nc(-n2cncn2)nc(Cl)c1-c1ccc(F)cc1F (stereo not drawn) is strictly below 30 nM.
Reply: not met
